assay: Drug repurposing screens with cells derived from glioblastoma tumor samples (AID 1345199); conditions: GBM patient neurospheres viability, ATP luminescence, 48 h; at 45.9 µM (top of the series); tumour line B; note: % is set by controls: 0 for no effect and ±100 for the full control effect
Results filed as inconclusive are left out.
property: activity, negative = cell killing (%)

[[record]]
molecule = "S=c1[nH]c2ccccc2s1"
property = "activity, negative = cell killing"
unit_name = "%"
measured_result = -16.2

[[record]]
molecule = "Cc1ccc(O)c(-n2nc3ccccc3n2)c1"
property = "activity, negative = cell killing"
unit_name = "%"
measured_result = -17.2

[[record]]
molecule = "O=C(Nc1ccc(C(=O)O)c(O)c1)c1ccccc1"
property = "activity, negative = cell killing"
unit_name = "%"
measured_result = -14.9

[[record]]
molecule = "CN(C)[C@@H]1C(=O)C(C(=O)NCN2CCCC2)=C(O)[C@@]2(O)C(=O)C3=C(O)c4c(O)cccc4[C@@](C)(O)C3C[C@@H]12 (stereo partly specified)"
property = "activity, negative = cell killing"
unit_name = "%"
measured_result = -10.2

[[record]]
molecule = "Cc1c(C(=O)O)c(O)cc2c1C(=O)c1c(O)c([C@@H]3O[C@H](CO)[C@@H](O)[C@H](O)[C@H]3O)c(O)c(O)c1C2=O"
property = "activity, negative = cell killing"
unit_name = "%"
measured_result = -25.2

[[record]]
molecule = "CC(=O)c1ccc(OCC(=O)N2CCCCC2)cc1"
property = "activity, negative = cell killing"
unit_name = "%"
measured_result = -9.55

[[record]]
molecule = "COc1cc(CNC(=O)CCCC/C=C/C(C)C)ccc1O"
property = "activity, negative = cell killing"
unit_name = "%"
measured_result = -4.61

[[record]]
molecule = "Nc1ccc(C(=O)O)c(O)c1"
property = "activity, negative = cell killing"
unit_name = "%"
measured_result = -5.49

[[record]]
molecule = "CC1(C)S[C@@H]2[C@H](NC(=O)[C@H](N)c3ccccc3)C(=O)N2[C@H]1C(=O)O"
property = "activity, negative = cell killing"
unit_name = "%"
measured_result = -7.71

[[record]]
molecule = "CC(=O)SCC(CC(=O)c1ccc(C)cc1)C(=O)O (stereo unspecified)"
property = "activity, negative = cell killing"
unit_name = "%"
measured_result = -14.9

[[record]]
molecule = "Cc1[nH]cnc1CN1CCc2c(c3ccccc3n2C)C1=O"
property = "activity, negative = cell killing"
unit_name = "%"
measured_result = -8.52


Attribution: PubChem BioAssay (NCATS)
